Target: LRRK2 (Homo sapiens)
Hi! Could you tag entries with Ki below 2 nM as label 1, and those at or above as label 0? Much appreciated.

Some solved cases for reference:
> print(dat)
                                 smiles.str  category
1    COc1nc(Nc2ccc(CN3CCOCC3)cc2OCCF)ncc1Cl   label 0
2        CNc1nc(Nc2cnn(CCF)c2C)ncc1C(F)(F)F   label 1
3  CNc1nc(Nc2cc(F)c(C(=O)N3CCOCC3)cc2OCCF)ncc1C(F)(F)F   label 0
4  CNc1nc(Nc2cc(C)c(C(=O)N3CCOCC3)cc2OCCF)ncc1C(F)(F)F   label 0
5  CCNc1nc(Nc2cc(F)c(CN3CCOCC3)cc2OCCF)ncc1C(F)(F)F   label 1

I'd appreciate it if you could check whether CNc1nc(Nc2cnn(C3CCN(CCF)CC3)c2C)ncc1C(F)(F)F has Ki smaller than 2 nM.
label 0

CNc1nc(Nc2cc(F)c(C(=O)N3CCCC3)cc2OCF)ncc1C(F)(F)F , same question.
label 0

Queued: CNc1nc(Nc2cc(C)c(C(=O)N3CCCC3)cc2OCF)ncc1C(F)(F)F
label 1

---

Biological target: LRRK2 (Homo sapiens, UniProt Q5S007)
Sequence (Q5S007 whole entry): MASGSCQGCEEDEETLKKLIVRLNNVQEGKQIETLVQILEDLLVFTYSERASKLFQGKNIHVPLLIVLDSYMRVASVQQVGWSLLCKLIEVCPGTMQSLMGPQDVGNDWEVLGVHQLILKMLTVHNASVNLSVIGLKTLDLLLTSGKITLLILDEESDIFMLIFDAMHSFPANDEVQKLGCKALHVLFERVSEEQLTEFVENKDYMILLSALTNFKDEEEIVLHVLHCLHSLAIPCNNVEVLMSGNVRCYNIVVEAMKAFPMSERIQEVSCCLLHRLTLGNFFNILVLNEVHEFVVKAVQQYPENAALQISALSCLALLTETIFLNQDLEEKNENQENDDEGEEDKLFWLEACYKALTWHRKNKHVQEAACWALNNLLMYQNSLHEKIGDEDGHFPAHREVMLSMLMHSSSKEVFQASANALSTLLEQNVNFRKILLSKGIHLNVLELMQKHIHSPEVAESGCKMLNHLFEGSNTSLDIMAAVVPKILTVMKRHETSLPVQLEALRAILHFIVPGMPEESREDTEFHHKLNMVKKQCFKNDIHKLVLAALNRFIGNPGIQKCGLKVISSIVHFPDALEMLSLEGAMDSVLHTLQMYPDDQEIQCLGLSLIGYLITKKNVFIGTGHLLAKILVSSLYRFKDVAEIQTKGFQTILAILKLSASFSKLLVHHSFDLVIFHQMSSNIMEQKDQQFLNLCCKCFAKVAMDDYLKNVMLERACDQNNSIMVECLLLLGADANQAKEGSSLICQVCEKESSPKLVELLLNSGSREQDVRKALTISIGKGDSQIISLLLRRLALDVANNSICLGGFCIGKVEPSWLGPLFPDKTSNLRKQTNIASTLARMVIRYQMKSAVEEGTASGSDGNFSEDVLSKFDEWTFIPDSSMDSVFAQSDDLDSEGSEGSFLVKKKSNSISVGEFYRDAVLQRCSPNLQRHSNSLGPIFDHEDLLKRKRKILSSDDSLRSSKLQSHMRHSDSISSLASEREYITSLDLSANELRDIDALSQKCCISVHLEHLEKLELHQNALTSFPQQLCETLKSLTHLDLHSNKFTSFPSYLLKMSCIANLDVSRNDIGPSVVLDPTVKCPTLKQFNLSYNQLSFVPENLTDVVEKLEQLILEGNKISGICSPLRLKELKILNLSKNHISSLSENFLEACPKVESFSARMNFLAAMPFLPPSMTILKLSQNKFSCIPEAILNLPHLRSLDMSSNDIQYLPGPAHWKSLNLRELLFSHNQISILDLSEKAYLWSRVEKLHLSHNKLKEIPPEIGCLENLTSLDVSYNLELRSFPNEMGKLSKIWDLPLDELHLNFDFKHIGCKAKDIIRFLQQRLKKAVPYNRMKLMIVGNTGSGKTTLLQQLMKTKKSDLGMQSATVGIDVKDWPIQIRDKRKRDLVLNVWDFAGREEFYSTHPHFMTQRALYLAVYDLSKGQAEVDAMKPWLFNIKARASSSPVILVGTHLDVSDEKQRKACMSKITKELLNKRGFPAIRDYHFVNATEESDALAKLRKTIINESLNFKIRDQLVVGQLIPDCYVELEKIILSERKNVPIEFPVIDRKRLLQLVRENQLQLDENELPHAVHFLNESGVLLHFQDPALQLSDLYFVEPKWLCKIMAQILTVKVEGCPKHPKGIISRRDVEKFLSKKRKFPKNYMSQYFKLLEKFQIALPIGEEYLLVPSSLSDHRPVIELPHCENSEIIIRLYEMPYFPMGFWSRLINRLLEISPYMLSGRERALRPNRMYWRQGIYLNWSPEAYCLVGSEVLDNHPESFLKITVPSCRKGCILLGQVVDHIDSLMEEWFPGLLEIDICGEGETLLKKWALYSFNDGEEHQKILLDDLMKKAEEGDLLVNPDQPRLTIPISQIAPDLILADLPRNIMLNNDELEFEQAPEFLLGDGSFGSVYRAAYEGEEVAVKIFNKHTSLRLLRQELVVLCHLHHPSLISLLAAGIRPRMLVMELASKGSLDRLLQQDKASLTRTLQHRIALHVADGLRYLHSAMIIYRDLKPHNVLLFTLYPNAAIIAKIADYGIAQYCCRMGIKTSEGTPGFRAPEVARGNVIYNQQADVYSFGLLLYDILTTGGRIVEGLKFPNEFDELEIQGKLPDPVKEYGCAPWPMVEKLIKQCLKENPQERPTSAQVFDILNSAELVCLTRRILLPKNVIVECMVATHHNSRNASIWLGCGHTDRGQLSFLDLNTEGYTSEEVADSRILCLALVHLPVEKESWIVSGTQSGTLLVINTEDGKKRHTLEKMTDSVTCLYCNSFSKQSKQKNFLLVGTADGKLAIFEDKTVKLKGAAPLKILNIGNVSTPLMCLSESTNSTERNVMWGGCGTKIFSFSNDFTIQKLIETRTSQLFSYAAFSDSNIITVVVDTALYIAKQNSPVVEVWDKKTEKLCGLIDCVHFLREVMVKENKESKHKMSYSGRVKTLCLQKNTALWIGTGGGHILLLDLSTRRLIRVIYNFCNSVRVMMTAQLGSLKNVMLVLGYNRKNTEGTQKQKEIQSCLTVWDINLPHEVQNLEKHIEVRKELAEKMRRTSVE
Just a reminder that ties go to 0.0: only Ki strictly below 3 nM counts as 1.0.

# count of solved cases: 4
> print(dat)
                                 smiles.str                           test.target  category
1  CNc1nc(Nc2cc(OC)c(C(=O)N(C)C)cc2OCF)ncc1C(F)(F)F  LRRK2 (Homo sapiens, UniProt Q5S007)       0.0
2  CNc1nc(Nc2cc(C)c(C(=O)N3CCOCC3)cc2OCF)ncc1C(F)(F)F  LRRK2 (Homo sapiens, UniProt Q5S007)       1.0
3  CNc1nc(Nc2ccc(C(=O)N3CCOCC3)cc2OC)ncc1C(F)(F)F  LRRK2 (Homo sapiens, UniProt Q5S007)       1.0
4  CCNc1nc(Nc2cc(OCF)c(C(=O)N3CCCC3)cc2F)ncc1C(F)(F)F  LRRK2 (Homo sapiens, UniProt Q5S007)       0.0

Is Ki of CCNc1nc(Nc2cc(OC)c(C(=O)N3CCC(F)(F)C3)cc2OCF)ncc1C(F)(F)F strictly below 3 nM?
1.0

Could you do the same for CNc1nc(Nc2cnc(N3CCOCC3)cc2OCCF)ncc1C(F)(F)F , please?
0.0
